Values compiled from ChEMBL document CHEMBL1201862.

Test system: MCF7
Assay: NCI tumour cell line growth inhibition, 48 h
Active and inactive are the calls of the source. Cut-off read from the data, not from the text of the source: active = GI50 up to about 1.1 µM and inactive = higher.
Valid outcomes are listed here; reply with one: TRUE for active, FALSE for inactive

{"compound": "Cc1nc2nn[nH]n2c(=O)c1CCO", "testedOn": "MCF7", "className": "FALSE"}
{"compound": "COc1cc(/C=C/C(=N\\NS(=O)(=O)c2ccc(C)cc2)c2sc(NNC(C)=O)nc2C)ccc1O", "testedOn": "MCF7", "className": "FALSE"}
{"compound": "CN(C)Cc1ccc(O)c(CN(C)C)n1", "testedOn": "MCF7", "className": "FALSE"}
{"compound": "O=C(O)C(Cc1ccccc1-c1ccccc1)C(=O)O", "testedOn": "MCF7", "className": "FALSE"}
{"compound": "CCOC(=O)C(Cc1ccc(OC(=O)OC(C)(C)C)cc1)NC(=O)OC(C)(C)C (centres undefined)", "testedOn": "MCF7", "className": "FALSE"}
{"compound": "O=C(CC(O)(C(F)(F)F)C(F)(F)Cl)CC(O)(C(F)(F)F)C(F)(F)Cl (centres undefined)", "testedOn": "MCF7", "className": "FALSE"}
{"compound": "O=C(O)c1cnccc1-c1cc(=O)[nH]n1-c1ccccc1", "testedOn": "MCF7", "className": "FALSE"}
{"compound": "CC1(C)OCC2(CO1)CSCCCSCC1(COC(C)(C)OC1)CSCCCSC2", "testedOn": "MCF7", "className": "FALSE"}

Assay outcome for `c1cc2ccc3cc4ncccc4c4ccc(c1)c2c34` : what was it? TRUE

###

Tested on: SR
Assay: NCI tumour cell line growth inhibition, 48 h
Active and inactive are the calls of the source. Cut-off read from the data, not from the text of the source: active = GI50 up to about 1.1 µM and inactive = higher.
Please respond with reported GI50 for every item in the list.

Solved cases below.
{"compound": "C[C@]1(O)CC(=O)c2c(c(-c3ccc4cc5c(c(O)c4c3O)C(=O)C[C@@](C)(O)C5)c3cccc(O)c3c2O)C1", "testedOn": "SR", "GI50": "5.56 µM (inactive)"}
{"compound": "C[C@@H](NC(C#N)c1ccco1)c1ccccc1 (stereo not given in full)", "testedOn": "SR", "GI50": "> 100 µM (inactive)"}
{"compound": "COc1cccc(NC(=O)CC(=O)N2N=C(C)C(/N=N\\c3ccc(S(=O)(=O)c4ccc(/N=N/C5C(=O)N(C(=O)CC(=O)Nc6cccc(OC)c6)N=C5C)cc4)cc3)C2=O)c1 (stereo not given)", "testedOn": "SR", "GI50": "> 100 µM (inactive)"}

Parameters: items (list). Returns: GI50 for each item.
1. COc1ccc(C(=O)N2CCN(c3ccc4[nH]c(=O)oc4c3)CC2)cc1
2. COC(=O)c1cc(/C=C\c2cc(OC)ccc2OC)ccc1OC
3. O=C1CC(NCc2ccccc2)c2c(Cl)sc(Cl)c21 (stereo not given)
4. CCOC(=O)C1C(c2ccc3c(c2)OCO3)c2c(n[nH]c2O)CC1(O)OCC (stereo not given)

["92.5 µM (inactive)", "10.4 µM (inactive)", "3.2 µM (inactive)", "> 100 µM (inactive)"]

Parameters: items (list). Returns: GI50 for each item.
1. O=C1/C(=C/c2ccc(OC(=O)c3ccc(Cl)cc3)cc2)CCC/C1=C\c1ccc(OC(=O)c2ccc(Cl)cc2)cc1
2. Nc1ccc2c(c1)Cc1ccccc1-2
3. CC(=O)OCC1OC(OC2C(COC(C)=O)OC(Sc3ccccc3C)C(OC(C)=O)C2OC(C)=O)C(OC(C)=O)C(OC(C)=O)C1OC(C)=O (stereo not given)
4. COc1cccc(NC(=O)CC(=O)N2NC(C)C(/N=N/c3cccc(C(=O)O)c3)C2=O)c1 (stereo not given)
5. NC(=O)c1cccc(/N=c2\oc3ccc(Br)cc3cc2-c2nc3ccccc3[nH]2)c1
6. CC/C(CC(=O)CCC(=O)Nc1ccc(C)c(C)c1)=N\NC(=O)c1cc2ccccc2cc1O

1: > 100 µM (inactive); 2: 52.5 µM (inactive); 3: > 100 µM (inactive); 4: > 100 µM (inactive); 5: 5.73 µM (inactive); 6: 18 µM (inactive)
